biological target: FTO (Homo sapiens (Human), UniProt Q9C0B1); assay: FTO enzyme inhibition (m6A dsDNA substrate, DpnII digestion, gel readout); assay type: biochemical; conditions: in vitro inhibition rate on FTO, compound at 50 μM
Sequence (Q9C0B1 whole entry): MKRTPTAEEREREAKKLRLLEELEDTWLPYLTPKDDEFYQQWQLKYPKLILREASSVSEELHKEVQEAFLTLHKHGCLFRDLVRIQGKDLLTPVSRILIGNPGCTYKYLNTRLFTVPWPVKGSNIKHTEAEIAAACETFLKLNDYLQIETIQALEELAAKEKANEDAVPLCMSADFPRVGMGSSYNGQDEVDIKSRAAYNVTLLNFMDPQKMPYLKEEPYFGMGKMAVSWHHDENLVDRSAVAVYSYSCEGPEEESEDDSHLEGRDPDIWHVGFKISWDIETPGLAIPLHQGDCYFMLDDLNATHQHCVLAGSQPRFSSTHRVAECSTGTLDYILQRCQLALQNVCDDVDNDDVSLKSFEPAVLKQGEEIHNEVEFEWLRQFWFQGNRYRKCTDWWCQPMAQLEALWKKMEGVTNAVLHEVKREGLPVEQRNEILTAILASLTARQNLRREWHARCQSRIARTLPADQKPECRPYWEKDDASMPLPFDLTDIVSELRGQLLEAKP
Classify by measured Inhibition rate: Criterion met if it is equal to or exceeds 90%, Criterion not met if it is smaller.

| Molecular string | Class name |
| --- | --- |
| Cc1noc(C)c1-c1cc(O)c(Nc2ccccc2C(=O)O)c(O)c1 | Criterion met |
| Cc1n[nH]cc1-c1cc(Cl)c(Nc2ncccc2C(=O)O)c(Cl)c1 | Criterion met |
| O=C(O)c1ccccc1Nc1cc(F)c(-c2ccncc2)c(F)c1 | Criterion met |
| O=C(O)c1ccccc1Nc1c(F)cc(-c2cn[nH]c2)cc1F | Criterion not met |
| O=C(NO)c1nccnc1Nc1c(Cl)cc(-c2cn[nH]c2)cc1Cl | Criterion not met |
| CCN(CC)CCNC(=O)c1ccccc1Nc1c(Cl)cc(-c2cn[nH]c2)cc1Cl | Criterion not met |
| O=C(O)c1ccccc1Nc1c(Cl)cc(C2CCNCC2)cc1Cl | Criterion not met |
| Cc1noc(C)c1-c1cc(Cl)c(Nc2ccccc2C(=O)NCCCN2CCOCC2)c(Cl)c1 | Criterion not met |
